All figures here come from patent US20220073604A1.

Examples of binders with documented Kd follow.
# target: T1, eukaryotically produced human IL-6 (human, UniProt P05231 30-212)
# T1 construct: Immobilised on the Biacore chip; also called Euk IL-6; EUK IL-6 (3-1)
# assay.name: SPR (Biacore), periplasmic Fab
measured.endpoint: Kd (nM)

# binder, measured.endpoint, quantitative.result
measured = [
    ("55C11 (Fab, V domains shown, Periplasmic Fab; Suffix 'f' not explained; also called 55C11f) VH: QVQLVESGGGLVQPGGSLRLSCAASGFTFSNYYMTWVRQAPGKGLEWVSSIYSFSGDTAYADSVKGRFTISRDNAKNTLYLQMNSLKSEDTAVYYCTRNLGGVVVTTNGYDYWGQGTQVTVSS VL: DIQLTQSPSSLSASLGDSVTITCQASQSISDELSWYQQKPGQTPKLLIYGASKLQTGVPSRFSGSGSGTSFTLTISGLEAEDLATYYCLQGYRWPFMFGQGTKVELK", "Kd", 0.323),
    ("48H1 (Fab, V domains shown, Periplasmic Fab; Suffix 'g2, R4' not explained; also called 48H1g2, R4) VH: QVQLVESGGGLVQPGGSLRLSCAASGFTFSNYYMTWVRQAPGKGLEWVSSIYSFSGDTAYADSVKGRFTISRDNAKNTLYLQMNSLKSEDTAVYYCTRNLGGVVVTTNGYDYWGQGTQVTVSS VL: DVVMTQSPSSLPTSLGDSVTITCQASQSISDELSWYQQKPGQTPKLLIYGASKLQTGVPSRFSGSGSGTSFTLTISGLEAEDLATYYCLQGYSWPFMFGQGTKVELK", "Kd", 0.64),
    ("55E10 (Fab, V domains shown, Periplasmic Fab; Suffix 'g1' not explained; also called 55E10g1) VH: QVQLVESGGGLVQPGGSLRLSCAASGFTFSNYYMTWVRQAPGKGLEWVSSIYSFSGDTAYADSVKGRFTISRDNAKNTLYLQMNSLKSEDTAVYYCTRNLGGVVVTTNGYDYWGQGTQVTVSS VL: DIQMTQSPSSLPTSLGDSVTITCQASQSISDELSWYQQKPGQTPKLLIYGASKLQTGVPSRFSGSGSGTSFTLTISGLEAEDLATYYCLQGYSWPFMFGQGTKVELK", "Kd", 0.382),
    ("55A11 (Fab, V domains shown, Periplasmic Fab; Suffix 'd' of the label not explained; also called 55A11d) VH: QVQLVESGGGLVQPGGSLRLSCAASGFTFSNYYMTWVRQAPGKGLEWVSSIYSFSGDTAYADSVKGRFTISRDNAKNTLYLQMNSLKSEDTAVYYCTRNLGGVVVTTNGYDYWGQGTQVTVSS VL: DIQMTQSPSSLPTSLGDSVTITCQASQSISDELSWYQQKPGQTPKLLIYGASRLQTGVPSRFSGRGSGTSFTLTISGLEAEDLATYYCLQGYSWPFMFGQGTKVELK", "Kd", 0.631),
]
